Reported LD50 values are given for each entry in this list.
experiment: rat acute oral toxicity
experimental conditions: in vivo

{"chem smiles": "ClCC(Cl)CCl", "readout unit": "mg/kg", "LD50": 136}
{"chem smiles": "O=C(Cl)CCCCl", "readout unit": "mg/kg", "LD50": 1350}
{"chem smiles": "CCCCCCCC(=O)OCC(COC(=O)CCCCCCC)OC(=O)CCCCCCC", "readout unit": "mg/kg", "LD50": 33300}
{"chem smiles": "OCc1ccco1", "readout unit": "mg/kg", "LD50": 177}
{"chem smiles": "CCN(CC)C(=S)SSC(=S)N(CC)CC", "readout unit": "mg/kg", "LD50": 500}
{"chem smiles": "CC=O", "readout unit": "mg/kg", "LD50": 661}
